Values were extracted from PubChem BioAssay (NCATS).

- protocol details: Stat Signaling Pathway (AID 446);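 further: ME-180 cervical cancer cells given 40 pM IL-6 alongside compound; SIE-controlled beta-lactamase reporter measured as 460/530 nm FRET emission ratio; on the % scale 0 is the no-effect control and ±100 the full control effect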
- protocol conditions: ME-180 (cervical carcinoma) SIE beta-lactamase reporter, IL-6 stimulated, 5 h; at 7.69 µM (top of the series) unless noted
Records with an inconclusive call do not appear. The source made the active and inactive calls. The call rests on the fitted dose curve; in most records, active means well fitted curve in either direction with a large enough effect (not every such curve was filed as active); inconclusive means small, poorly fitted or top-dose-only effect, or another doubt; inactive means flat fitted curve, though single readings scatter.
result type: activity, negative = inhibition

In: Report activity, negative = inhibition, nothing else, for this molecule: "CC(C)NCC[C@@H](O)c1cc2ccccc2o1"
Out: 9.58% (inactive)

In: // Input: "CC(C)=N[C@H](C(=O)O)C(C)(C)S" . Output its activity, negative = inhibition only.
Out: 6.64% (inactive)

In: Consider the molecule "CCOC(=O)[C@@H](O)Cc1cnc2ccccc2n1" and give its recorded activity, negative = inhibition.
Out: -5.21% (inactive)

In: Name the recorded activity, negative = inhibition of the item "C[N+](C)([O-])CCC=C1c2ccccc2CCc2ccccc21" in your answer.
Out: 10.1% (inactive)

In: Fill in activity, negative = inhibition for record "C[N@@+]1(Cc2ccc(Cl)c(Cl)c2)CCC[C@@H]1c1ccc[n+](Cc2ccc(Cl)c(Cl)c2)c1"
Out: -0.293% (inactive)

In: Specify reported activity, negative = inhibition for the molecule shown: "C[C@@](N)(Cc1c[nH]c2ccccc12)C(=O)O"
Out: 10.9% (inactive)

In: Respond only with activity, negative = inhibition recorded for Cc1c2cccc(Sc3ccccc3)c2c2c3c(cccc13)[S+](c1ccccc1)C2 (stereo unspecified)
Out: 2.31% (inactive)

In: Indicate the recorded activity, negative = inhibition value for this molecule: "O=C(O)c1c(-c2c3ccc(=O)cc-3oc3cc(O)ccc23)cc2ccccc2c1-c1ccccc1"
Out: 3.5% (inactive)

In: Output activity, negative = inhibition of "Cc1ccccc1/C=C\C1=NCCN1"
Out: 5.08% [at 38 µM] (inactive)

In: For the molecule "NC1(C(=O)OCc2ccccc2)CCCC1" , give its reported activity, negative = inhibition.
Out: 3.45% (inactive)

In: Input "Oc1ccc2ccccc2c1CN(Cc1c(O)ccc2ccccc12)C1CCCCC1" , output reported activity, negative = inhibition.
Out: -14.2% (inactive)

In: // fetch activity, negative = inhibition given entry "Cc1cccc(CNc2nc(-c3ccc(C(=O)N(C)C)cc3)nc3ccccc23)c1"
Out: -18.6% (inactive)

In: Fill in activity, negative = inhibition for record "CCSC[C@@H](N)C(=O)O"
Out: 0.221% (inactive)

In: Could you please provide reported activity, negative = inhibition for "CN(C)CCCN=C(N)N" ? Thanks!
Out: 2.14% (inactive)

In: Indicate its recorded activity, negative = inhibition; the molecule in question is "N#CC1(Nc2ccc(-c3ccc(NC4(C#N)CCCC4)cc3)cc2)CCCC1"
Out: 19% (inactive)

In: Give reported activity, negative = inhibition value for "C[C@@H](N=C(N)N)C(=O)O"
Out: -6.68% (inactive)

In: For the molecule Nc1nc(N)c2[nH]cnc2n1 (tested in a mixture with another compound) , report activity, negative = inhibition.
Out: 4.45% (inactive)

In: In one line, give reported activity, negative = inhibition of the entry "NC(Cc1ccccc1)=NCC(=O)O" .
Out: -4.46% (inactive)

In: Return reported activity, negative = inhibition. Input molecule: "COc1ccc(Oc2ncc3nc(-c4ccc(Cl)cc4)c(=O)n(CCC#N)c3n2)cc1"
Out: -7.87% (inactive)

In: Return the recorded activity, negative = inhibition value; entry: "O=S1(=O)[C@H]([C@H]2CC3c4ccccc4C2c2ccccc23)[C@@H](N2CCCCC2)[C@@H]1c1ccccc1"
Out: 10.9% (inactive)

In: Please look at this molecule and report its activity, negative = inhibition: "O[C@@H](COc1cccc2ccccc12)CN1CCOCC1"
Out: 3.7% (inactive)

In: Return reported activity, negative = inhibition. Input molecule: "O=C(O)CN(CCN(CC(=O)O)CC(=O)O)CC(=O)O.[Mn]"
Out: 8.71% (inactive)

In: Tell me activity, negative = inhibition reported for "C[C@@H]1CCCN(C[C@@H](O)CN2CCCc3ccccc32)C1"
Out: 11.4% (inactive)

In: Return the recorded activity, negative = inhibition value; entry: "COc1ccc2cc(C(=O)CCC(=O)O)ccc2c1"
Out: 6.44% (inactive)

In: Please look at this molecule and report its activity, negative = inhibition: "CCn1cc(C(=O)O)c(=O)c2ccc(Cc3ccccc3)nc21"
Out: 8.13% [at 38 µM] (inactive)

In: Given the molecule "Cc1nc2cnc(Oc3cccc(Cl)c3)nc2n(C[C@H]2CCCO2)c1=O" , write its reported activity, negative = inhibition.
Out: -6.17% (inactive)

In: Please supply the value of reported activity, negative = inhibition for the item "O=C(Nc1ccc(Nc2ccc3c(c2)C(=O)c2ccccc2C3=O)c2c1C(=O)c1ccccc1C2=O)c1ccccc1"
Out: 13% (inactive)

In: Give the value of activity, negative = inhibition reported for the following: "O=C(CC1(O)CCCCC1)OC1CCCC1"
Out: 4.14% (inactive)

In: Identify measured activity, negative = inhibition corresponding to "C[C@@]12CC(=O)[C@@H]3[C@@H](CCC4=CC(=O)CC[C@]43C)[C@@H]1CC=C2CC(=O)O"
Out: 2.31% (inactive)

In: Give the reported value of activity, negative = inhibition for this record: "COCCn1c(=O)c(-c2cc(F)cc(F)c2)nc2cnc(Oc3ccc(OC)cc3)nc21"
Out: -2.08% (inactive)

In: Look up activity, negative = inhibition of "O=C(CCN1CCCCC1)N1CCc2c([nH]c3ccccc23)[C@H]1c1cccnc1" and report it.
Out: -6.32% (inactive)

In: Give the reported activity, negative = inhibition for this molecule. "O=C(CN1C(=O)c2ccccc2C1=O)[C@@H](O)CN1C(=O)c2ccccc2C1=O"
Out: -0.0648% (inactive)

In: // fetch activity, negative = inhibition given entry "O=S(=O)(O)c1ccc(NN(c2c(O)ccc3ccccc23)S(=O)(=O)O)cc1"
Out: -0.169% (inactive)

In: Provide measured activity, negative = inhibition value, entry: "O=C(O)CCCSc1ccccc1"
Out: 4.11% (inactive)

In: Report activity, negative = inhibition, nothing else, for this molecule: "O=C(O)[C@@H](Cc1c[nH]c2ccccc12)C(=O)NO"
Out: 4.19% (inactive)

In: Fill in reported activity, negative = inhibition for this entry: "OC[C@H](S)CS"
Out: 5.31% (inactive)

In: Determine from records and report activity, negative = inhibition for "OC1(C(O)(c2ccc(-c3ccccc3)cc2)c2ccc(-c3ccccc3)cc2)CCCCC1"
Out: 1.1% (inactive)

In: Return the recorded activity, negative = inhibition value; entry: "O=C(O)c1ccc([N+]2=Cn3c(nc4ccccc43)C2)cc1"
Out: 0.556% (inactive)

In: Give the reported activity, negative = inhibition for this molecule. "O=C(O)c1cccc(OCCO)c1"
Out: 13.6% (inactive)

In: Dear colleague, please send me the reported activity, negative = inhibition for "NCCNS(=O)(=O)c1ccc(N)cc1" when you can.
Out: 3.19% (inactive)

In: Specify reported activity, negative = inhibition for the molecule shown: "CC1(C)[C@@H]2CC[C@]1(CC(=O)O)[C@H](Cl)C2"
Out: 6.68% (inactive)

In: Complete the entry with activity, negative = inhibition for "O=c1[nH]c(=S)[nH]c2c1CN(CCCN1CCOCC1)CN2"
Out: 4.09% (inactive)

In: Determine from records and report activity, negative = inhibition for "COc1cc(C)cc(OC)c1/C=C\C(=O)O"
Out: 7.32% (inactive)

In: Answer with the recorded activity, negative = inhibition for the molecule listed here: "Oc1cccnc1CN1CCCCC1"
Out: 16.8% (inactive)

In: Specify measured activity, negative = inhibition for "CN1CCC[C@H](C(=O)OCC(=O)[C@]2(O)CC[C@@H]3[C@H]4CCC5=CC(=O)CC[C@@]5(C)[C@H]4[C@@H](O)C[C@]32C)C1" .
Out: -2.61% (inactive)

In: Specify measured activity, negative = inhibition for "O=C(O)c1cc(-c2ccc(-c3ccccc3)cc2)nc2cc3ccccc3cc12" .
Out: -0.262% (inactive)
